molecular target: GABARAP, O95166; experiment: median log2 fold change of GCK-ALFA target abundance (FLAG IP / Myc IP barcode read proportion) (log2 ratio); each designed protein is fused to an ALFA-tag nanobody in HEK293 cells to bring the named protein to FLAG-tagged glucokinase (GCK); Myc marks an untargeted standard; higher = target protein stabilised (more abundant); settings: target protein: 3xFLAG-MCP-GCK-ALFA reporter; HEK293 landing pad (RPLP)
Sequence (O95166 whole entry, the tested form may be a part): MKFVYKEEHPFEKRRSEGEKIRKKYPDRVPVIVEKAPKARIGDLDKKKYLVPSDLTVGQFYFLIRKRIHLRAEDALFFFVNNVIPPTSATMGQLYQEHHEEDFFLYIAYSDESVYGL
In all, about 4,500 sequences were measured (“median log2 fold change of GCK-ALFA target abundance (FLAG IP / Myc IP barcode read proportion)”: median about 0.078, lowest 2% from about -0.6 on). Shown is part of a subset that was picked to be rich in the lowest values.
ASSAY ENDPOINT: median log2 fold change

[
  {
    "BINDER": "GBRAP_125_2963 (protein) SEEEDLKALATLAKALGFDEDDVAEAVELARKFGIKNTVIALFLAEGYEEVAELVEKLTEEEVREVLKELAKEIEANPDLTPEEVVELAKKLLEKKIAKK",
    "RECORDED MEASUREMENT": -0.725
  },
  {
    "BINDER": "GBRAP_78_6736 (protein) EIEELIDKALEELNRAARLAQQFPLEEQTELLDLIIDASTLLEEAEEEGFDLKLLEEALKKLKEALKLAKKLKTPLAEKLAKELEEAIKLVEKAIKLVKE",
    "RECORDED MEASUREMENT": -0.0442
  }
]
